- Test system: P. falciparum 3D7 growth, pLDH absorbance
- assay-name: blood-stage malaria parasite growth potency – strain 3D7, dose response (AID 2305)
As shown below, each of these molecules has a reported IC50 value.

Solved entries (count: 5):
CC(=O)Nc1nc(C(=O)Nc2cccc(-c3cccc(-c4nc5ccc(F)cc5[nH]4)c3)c2)cs1 ... 90 nM
CS(=O)(=O)c1ccc(CNCc2cccc(-c3ccc(-c4nc5ccc(C(F)(F)F)cc5[nH]4)cc3)c2)cc1 ... 510 nM
c1ccc(-n2ncc(CNCc3ccc(-c4ccc(-c5nc6ccccc6[nH]5)s4)cc3)n2)cc1 ... 1400 nM
CC(C)N1CCC(NCc2ccc(-c3ccc(Cl)cc3)cc2)CC1 ... 650 nM
COc1cc2nccc(Nc3cccc(Oc4ccccc4)c3)c2cc1OC ... 640 nM

Need IC50, item O=C(c1cc(C(=O)NC2CCCCC2)c(=O)n(C2CCCCC2)c1)c1cc(F)ccc1O 630 nM

Need IC50, item CCOC(=O)c1ccc(N(CCCN(CCCN(c2ccc(C(=O)OCC)cc2)S(=O)(=O)c2ccc(C)cc2)CCc2ccc(O)cc2)S(=O)(=O)c2ccc(C)cc2)cc1 1050 nM

Need IC50, item CCCN(CCC)C(=O)c1cc(C(=O)N[C@@H](Cc2ccccc2)[C@H](O)CNC(C)(C)c2cccc(OC)c2)cc(N2CCCCS2(=O)=O)c1 30 nM

* * *

- System: P. falciparum 3D7 growth, pLDH absorbance
- assay-name: blood-stage malaria parasite growth potency – strain 3D7, dose response (AID 2305)
pIC50: −log10 of the molar value.
Returns one of Yes or No; Yes when pIC50 is >= 6.

N/C(=N/C(=NCCCCCCN=C(/N=C(/N)Nc1ccc(Cl)cc1)N1CCCCC1)N1CCCCC1)Nc1ccc(Cl)cc1 ... Yes
CN1CCC(N(Cc2ccc(-c3ccc(C(F)(F)F)cc3)cc2)C(=O)Cn2c(SCc3cccc(F)c3F)cc(=O)c3c2CCC3)CC1 ... Yes

# check: pIC50 of O=C(COc1ccc(Cl)c(Cl)c1)NCCCCCN1CCCN(C(=O)Nc2ccc(Cl)c(Cl)c2)CC1 is greater than or equal to 6 No

* * *

As shown below, each of these molecules has a reported log10(IC50) value.
- Tested on: P. falciparum 3D7 growth, pLDH absorbance
- assay-name: blood-stage malaria parasite growth potency – strain 3D7, dose response (AID 2305)
Hey, these are logged values: log10 of IC50, µM being the unit before logging.

Solved entries (count: 5):
CN1CCN(Cc2cccc(-c3ccc4c(Nc5ccc(Oc6ccccc6)cc5)ccnc4c3)c2)CC1 ... -0.64
c1ccc2c(C3CCN(CCCCOc4ccc5c(c4)CCN(C4CCC4)CC5)CC3)c[nH]c2c1 ... -0.15
CN1CCN(c2ccnc3ccc(NC(=O)Nc4c(Cl)cccc4Cl)cc23)CC1 ... -0.06
CCc1c(CCNCCCCCCNC(C)(C)Cc2ccc3c(c2CC)OCO3)ccc(OC)c1OC ... -0.03
FC(F)(F)c1cccc(CNC2CCN(CC3CCCCC3)CC2)c1 ... -0.24

Need log10(IC50), item Cc1cc(C2CCN(CCCCNC(=O)c3ccc(-c4ccc(C(F)(F)F)cc4)cc3)CC2)c(C)cc1OCC#N 0.00

Need log10(IC50), item COc1ccccc1C1CCN(C2CCC(NC(=O)/C=C/c3ccc(F)c(F)c3)CC2)CC1 (centres undefined) 0.12

Need log10(IC50), item CCCc1cc(Cc2cnc(N)nc2N)cc2c1OC(C)(C)C2 0.03

Need log10(IC50), item FC(F)(F)c1ccc2nc(-c3ccc(-c4ccc(CN5CCN(c6ccncc6)CC5)cc4)cc3)[nH]c2c1 -1.22
